assay: Half life in fasted healthy human at 30 mg/kg, po; assay type: ADME, organism-based; set-up: dose 30 mg/kg, route oral; details: in vivo
Measured parameter: half-life

Prompt: Name the reported half-life value associated with the compound COC(=O)N[C@H](C(=O)N1CC2(CC2)C[C@H]1c1nc(-c2ccc3c(c2)C(F)(F)c2cc(-c4ccc5[nH]c([C@@H]6[C@H]7CC[C@H](C7)N6C(=O)[C@@H](NC(=O)OC)C(C)C)nc5c4)ccc2-3)c[nH]1)C(C)C
Response: 37.2 h

----------
assay: Half life in fasted healthy human at 60 mg/kg, po; format: ADME, organism-based; set-up: dose 60 mg/kg, route oral; conditions: in vivo
Measured parameter: half-life (h)
Answer in h, number only, no unit symbol.

Prompt: Quick check: half-life of COC(=O)N[C@H](C(=O)N1CC2(CC2)C[C@H]1c1nc(-c2ccc3c(c2)C(F)(F)c2cc(-c4ccc5[nH]c([C@@H]6[C@H]7CC[C@H](C7)N6C(=O)[C@@H](NC(=O)OC)C(C)C)nc5c4)ccc2-3)c[nH]1)C(C)C ?
Response: 44.2

----------
assay: Plasma concentration in fasted healthy human at 30 mg/kg, po at 24 hrs; assay type: ADME, organism-based; parameters: dose 30 mg/kg, route oral
Measured parameter: concentration at 24 h (nM)
Field: numeric (nM). Do not append units.

Prompt: Would you kindly share the measured concentration at 24 h for COC(=O)N[C@H](C(=O)N1CC2(CC2)C[C@H]1c1nc(-c2ccc3c(c2)C(F)(F)c2cc(-c4ccc5[nH]c([C@@H]6[C@H]7CC[C@H](C7)N6C(=O)[C@@H](NC(=O)OC)C(C)C)nc5c4)ccc2-3)c[nH]1)C(C)C ?
Response: 31.4

----------
experiment: Mean residence time in Sprague-Dawley rat at 1 mg/kg, iv; type: ADME, organism-based; parameters: dose 1 mg/kg, route intravenous; conditions: in vivo
Measured MRT accompanies every entry in the list below.
Returns: string containing the number followed by the unit.

Prompt: Look up MRT for this compound: COC(=O)N[C@H](C(=O)N1CCC[C@H]1c1ncc(-c2ccc(-c3ccc(-c4ccc5nc([C@@H]6CCCN6C(=O)[C@@H](NC(=O)OC)C(C)C)[nH]c5c4)cc3)cc2)[nH]1)C(C)C
Response: 1.71 h

Prompt: Need MRT of COC(=O)N[C@H](C(=O)N1CCC[C@H]1c1ncc(-c2ccc(-c3ccc(-c4cnc([C@@H]5[C@H]6CC[C@H](C6)N5C(=O)[C@@H](NC(=O)OC)C(C)C)[nH]4)cc3)cc2)[nH]1)C(C)C , thanks.
Response: 1.4 h

Prompt: Give its MRT value. Item: COC(=O)N[C@H](C(=O)N1CCC[C@H]1c1ncc(-c2ccc3c(c2)C(F)(F)c2cc(-c4ccc5nc([C@@H]6CCCN6C(=O)[C@@H](NC(=O)OC)C(C)C)[nH]c5c4)ccc2-3)[nH]1)C(C)C
Response: 2.21 h

----------
assay: Tmax in fasted healthy human at 30 mg/kg, po; assay type: ADME, organism-based; set-up: dose 30 mg/kg, route oral; conditions: in vivo
Measured parameter: Tmax
Units required after the number.

Prompt: What Tmax value was documented for this molecule, COC(=O)N[C@H](C(=O)N1CC2(CC2)C[C@H]1c1nc(-c2ccc3c(c2)C(F)(F)c2cc(-c4ccc5[nH]c([C@@H]6[C@H]7CC[C@H](C7)N6C(=O)[C@@H](NC(=O)OC)C(C)C)nc5c4)ccc2-3)c[nH]1)C(C)C ?
Response: 5.75 h
